Cited source for all entries: the RNAGym collection of RNA variant scans (doi:10.1073/pnas.2313332121)

B1: TPR t1 (parent)
chain: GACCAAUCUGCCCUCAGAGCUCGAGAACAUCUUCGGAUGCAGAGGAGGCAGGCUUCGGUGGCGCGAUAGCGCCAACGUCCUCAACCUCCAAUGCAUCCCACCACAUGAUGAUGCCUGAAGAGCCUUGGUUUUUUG

- Variants of: B1
- TEST_DESCRIPTION: polymerase ribozyme fitness, log enrichment relative to wild type (log ratio); higher = more active; in vitro selection for triplet polymerase activity
Give measured polymerase ribozyme fitness (log ratio) for each item. Keep answers brief.
Respond using a number only.

Exercise: Item GACCAAUCUGCCCUCAGAGCUCGAGAACAUCUUCGGAUGCUGAGGAGGCAGGCUUCGGUGGCGCGAUAGCGCCAACGUCCUCAACCUCCAAUGCAUCCCACCACAUGAUGAUGCCUGAAGAGCGUUGGUUUUUUG [A41U C124G] : provide polymerase ribozyme fitness (log ratio)
Key: 0.981

Exercise: Input GACCAAUCUACCCUCAGAGCUCGAGAACAUCUGCGGAUGCAGAGGAGGCAGGCUUCGGUGGCGCGAUAGCGCCAACGUCCUCAACCUCCAAUGCAUCCCACCACAUGAUGAUGCCUGAAGAGCCUUGGUUUUUUG [G10A U33G] , output reported polymerase ribozyme fitness (log ratio).
Key: -4.61

Exercise: // fetch polymerase ribozyme fitness (log ratio) given entry GACCAAUCUGCCCUCAGAGCUCGAGAACAUCUUCGGAUGCAGAGGAGGCAGUCUUCGGUGGCACGAUAGCGCCAACGUCCUCAACCUCCAAUGCAUCCCACCACAUGAUGAUGCCUGAAUAGCCUUGGUUUUUUG [G52U G63A G120U]
Key: -1.08

Exercise: Read off the recorded polymerase ribozyme fitness (log ratio) for GACCAAUCUGCCCUCAGAGCUCGAGAACAUCUUCGGAUGCAGAGGAGGCAGGCUUCGGUGGCGCGAUAGCGCCAACGUCCUCAACCUCCAAUGCAUCCCAGCACAUGAUGAUGACUGAAGAGCCUUGGUUUUUUG [C101G C114A]
Key: -3.3

Exercise: Supply measured polymerase ribozyme fitness (log ratio) of GACCCAUCUGCCCUCAGAGCUCGAGAACAUCUUCGGAUGCAGAGGAGGCAAGCUUCGGUGGCGCGAUAGCGCCAACGUCCUCAACGUCCAAUGCAUCCCACCACAUGAUGAUGCCUGAAGAGCCUUGGUUUUUUG [A5C G51A C86G] in your reply.
Key: -4.05

Exercise: Identify the reported polymerase ribozyme fitness (log ratio) for the following entry. GACCAAUAUGCACUCAGAGCUCGAGAACAUCUUCGGAUGCAGAGGAGGCAGGCUUCGGUGGCGCGAUAGUGCCAACCUCCUCAACCUCCAAAGCAUCCCACCACAUGAUGAUGCCUGAAGAGCCUUUGUGAUUUG [C8A C12A C70U G77C U92A G127U U130G U131A]
Key: -6.59

Exercise: Please look at this variant and report its polymerase ribozyme fitness (log ratio): GACCAAUCUGCCCUCAGAGCUCGAGAACAUCUUCGGAUGCAGAGGAGCCAGGCUUUGGUGGCGCGAUAGCGCCAACAUCCUCAACCUCCAAUGCAUCCCACCACAUGAUAAUGCCUGAAGAGCCUUGGUUUUUUG [G48C C56U G77A G110A]
Key: -2.29

Exercise: Give the value of polymerase ribozyme fitness (log ratio) reported for the following: GACCAAUCUGGCCUCAGAGCUCGAGAACAUCUUCGGAUGUAGAGGACGCAGGCUUAGGUGGCGCGAUAGCGCCAACGUCCUCAACCUCCAAAGCAUCCCACCACAUGAUGAUGCCUGAAGAGCCUUGGUUUUUUG [C11G C40U G47C C56A U92A]
Key: -6.34

Exercise: Name the recorded polymerase ribozyme fitness (log ratio) of the variant listed here: GACCAAUCUGCCCGCAGAGCUCGAGAACAUCUUCGGAUGCAGUGGAGGCAGGCUUCGGUGGCCCGAUAGCUCCAACGUCCUCAACCUGCAAUGCAUCCCACCACAUGAUGAUGCCUGAAGAGCCUUGGUUUUUUG [U14G A43U G63C G71U C88G]
Key: -7.34

Exercise: Give polymerase ribozyme fitness (log ratio) for GACCAAUCUGUCCUCAGAGCUCGAGAACAUCUUCGGAUGCAGAGAAGGCAGGCUUCGGUGGCGCGAUAGCGCCAACGUCCUCAACCUCGAAUGCAUCCCACCACAUGAUGAUGCCUGAAGGGCCUUGGUUUUUUG [C11U G45A C89G A121G]
Key: 0.687

Exercise: Please list polymerase ribozyme fitness (log ratio) recorded for the variant GACCAUUCUGCCCACAGAGCUCGAGAACAUCUUCGGAUGCAGAGGAGGCAGGCUUCGGUGGCGCGAUAGCGCCAACGUCCUCAACAUCCAAUGCAACCCACCACAUGAUGAUGCCUGAAGAGCCUUGGUUUUUUG [A6U U14A C86A U96A]
Key: -6.24
